Cited source for all entries: ChEMBL document CHEMBL3988442

biological target: Sialic acid-binding Ig-like lectin 9 (Homo sapiens); test: Hs-Siglec9 ALPHAscreen SOP 20170721; design: scale not given: direction of the effect not stated beside the values; details: 10 µM
Parameter: Percent Effect (%)
Answers are plain numbers, in %.

CC(OCC1CC1)C(=O)N1CCCN(Cc2cnn(C)c2)CC1 (stereo not given)    -2.42
CC1CCCN(C(=O)CCc2cccnc2)C1 (stereo not given)    -8.86
c1cncc(OCc2nnn3c2CN(Cc2ccsc2)CCC3)c1    1.61
CC(=O)N1CCC(c2ccnc(Nc3cnccn3)n2)C1 (stereo not given)    1.15
Cc1cccnc1NCCNC(=O)[C@H]1CNC[C@@H](C(=O)N2CCCC2)C1    8.93

Give Percent Effect for each listed item.
1. Cc1ccc(N2CC[C@H]3OCC[C@@]3(C(=O)NC(C)C)C2)nn1
2. CN(Cc1ccccc1)C1COC2(CCN(Cc3nccs3)CC2)C1 (stereo not given)
3. CCn1ccnc1CN1CCN(Cc2ccccn2)CC1C (stereo not given)
4. O=C(NC1(c2nnn(Cc3ccncc3)n2)CCCC1)c1ccccc1
5. Cc1cnn(CC2CN(CCc3ccncc3)CCO2)c1 (stereo not given)
6. CC(=O)NCC1CCN(CC2CCOc3ccccc3C2)CC1 (stereo not given)
7. Cc1ccc(NC2CCN(C(=O)COCC(F)(F)F)CC2)nn1
8. Cc1cc(C)n(CC2CN(Cc3nc(-c4ccoc4)no3)CCO2)n1 (stereo not given)

1: 0.317; 2: 1.43; 3: 3.52; 4: 6.6; 5: -1.34; 6: 14; 7: 3.15; 8: 0.775

Could I get Percent Effect for every one of these entries?
1. CC(C)NC(=O)N1CCN(S(=O)(=O)C2CC2)CC2(CNC(=O)C2)C1 (stereo not given)
2. CCC1=N[C@@]2(CC[C@@H]3CN(Cc4ccc(Cl)cc4)C[C@@H]32)C(=O)N1

[2.04, -3.03]
